Target or system Adenosine receptor A2b (Homo sapiens); metric Ki; compiled from varied reports.
Give a bare numeral; the unit nM is implied.

Previously resolved entries follow.
{"Structure as smiles": "Cc1cccnc1CNc1ccn2nc(-c3ccco3)c(C(N)=O)c2n1", "Assay system": "Adenosine receptor A2b (Homo sapiens)", "Ki (nM)": 971}
{"Structure as smiles": "Cc1cc(-c2c(-c3cccc(C#N)c3)nn3ccc(NCC(C)(C)O)nc23)cc(C(F)F)n1", "Assay system": "Adenosine receptor A2b (Homo sapiens)", "Ki (nM)": 53}
{"Structure as smiles": "N#Cc1c(-c2cccc(F)c2)nn2ccc(NCc3ccccc3)nc12", "Assay system": "Adenosine receptor A2b (Homo sapiens)", "Ki (nM)": 181}
{"Structure as smiles": "COc1nc(-c2ccco2)nc(N)c1C(=O)NCc1c(Cl)cccc1Cl", "Assay system": "Adenosine receptor A2b (Homo sapiens)", "Ki (nM)": 5.4}
{"Structure as smiles": "Nc1nc(-c2cccc(F)c2)ncc1C(=O)NCc1ccccn1", "Assay system": "Adenosine receptor A2b (Homo sapiens)", "Ki (nM)": 195}

input: Given CCCn1c(=O)c2c(cc(-c3cnn(Cc4ccccc4)c3)n2O)n(CCC)c1=O , report its Ki on Adenosine receptor A2b (Homo sapiens).
output: 120

input: Give Ki only, for Cc1cc(-c2c(-c3cccc(C#N)c3)nn3ccc(N)nc23)cc2ncnn12 , using Adenosine receptor A2b (Homo sapiens) data.
output: 108

input: Give reported Ki for Cc1cc(C)cc(CNC(=O)c2cnc(-c3ccco3)nc2N)c1 (Adenosine receptor A2b (Homo sapiens))
output: 2130

input: System Adenosine receptor A2b (Homo sapiens). Read-out Ki. Item Cc1cc(-c2c(-c3cccc(C#N)c3)nn3ccc(N4CCNCC4)nc23)cc(Cl)n1 . Report value.
output: 21

* * *

Adenosine receptor A2b (Homo sapiens, UniProt P29275) Ki, compiled from various sources.
Entries whose Ki is below 50 nM take Criterion met; entries at or above 50 nM take Criterion not met.

Check out these entries, answers already filled in.
{"Compound": "Nc1nc(-c2cccc(F)c2)ncc1C(=O)NCc1cccc(F)c1", "Assay system": "Adenosine receptor A2b (Homo sapiens, UniProt P29275)", "Label value": "Criterion not met"}
{"Compound": "COc1cccc(OC)c1CNC(=O)c1cnc(-c2ccco2)nc1N", "Assay system": "Adenosine receptor A2b (Homo sapiens, UniProt P29275)", "Label value": "Criterion not met"}
{"Compound": "Nc1nc(-c2ccco2)ncc1C(=O)NCc1cccc2c1OCO2", "Assay system": "Adenosine receptor A2b (Homo sapiens, UniProt P29275)", "Label value": "Criterion not met"}
{"Compound": "Cc1cc(-c2c(-c3cccc(C#N)c3)nn3ccc(C(=O)NCC4(C)CCCNC4)nc23)cc(Cl)n1 (stereo not drawn)", "Assay system": "Adenosine receptor A2b (Homo sapiens, UniProt P29275)", "Label value": "Criterion met"}
{"Compound": "CC(C)(C)OC(=O)N1CCO[C@@H](CNc2ccn3nc(-c4ccco4)c(C#N)c3n2)C1", "Assay system": "Adenosine receptor A2b (Homo sapiens, UniProt P29275)", "Label value": "Criterion met"}
{"Compound": "Cc1cc(-c2c(-c3cccc(C#N)c3)nn3ccc(C(=O)N[C@H](C)C(C)(C)O)nc23)cc(Cl)n1", "Assay system": "Adenosine receptor A2b (Homo sapiens, UniProt P29275)", "Label value": "Criterion met"}
{"Compound": "Cc1cc(-c2c(-c3cccc(C#N)c3)nn3ccc(NC(=O)NCC(C)(C)O)nc23)cc(Cl)n1", "Assay system": "Adenosine receptor A2b (Homo sapiens, UniProt P29275)", "Label value": "Criterion met"}
{"Compound": "COc1cc(-c2c(-c3cccc(C#N)c3)nn3ccc(N)nc23)cc(C)n1", "Assay system": "Adenosine receptor A2b (Homo sapiens, UniProt P29275)", "Label value": "Criterion met"}
{"Compound": "CCCn1c(=O)c2[nH]c(-c3cc[n+]([O-])cc3)cc2n(CCC)c1=O", "Assay system": "Adenosine receptor A2b (Homo sapiens, UniProt P29275)", "Label value": "Criterion not met"}
{"Compound": "Cc1cc(-c2c(-c3cccc(C#N)c3)nn3ccc(C(=O)NCCC(C)(C)O)nc23)cc(Cl)n1", "Assay system": "Adenosine receptor A2b (Homo sapiens, UniProt P29275)", "Label value": "Criterion met"}

input: Could you please tell me whether Ki recorded for NC(=O)c1c(-c2ccco2)nn2ccc(NCc3ccccc3)nc12 is less than 50 nM?
output: Criterion not met

input: Lab note: confirm whether the reported Ki for this compound is below 50 nM, equality not counting. compound: Cc1cc(-c2c(-c3cccc(C#N)c3)nn3ccc(C(=O)NC[C@@H]4CCC(=O)N4)nc23)cc(C)n1
output: Criterion not met

input: Here's an entry: Cc1cccnc1CNC(=O)c1c(N)nc(-c2ccco2)nc1OC[C@@H](C)O . Is its Ki below 50 nM?
output: Criterion not met

input: Input Nc1nc(-c2ccco2)ncc1C(=O)NCc1cccc2cccnc12 ; condition: Ki strictly below 50 nM. Does it hold?
output: Criterion not met

input: Please state whether Ki is below 50 nM for Cc1cc(-c2c(-c3cccc(C#N)c3C)nn3ccc(C(=O)N[C@@H](C)C(C)(C)O)nc23)cc(C)n1
output: Criterion not met

* * *

A compilation of published Ki results with Adenosine receptor A2b (Homo sapiens).
Ranges used to classify Ki: LOW: < 9 nM; MID: ≥ 9 nM and < 400 nM; HIGH: ≥ 400 nM

{"Structure as smiles": "CCn1c(=O)c2c(C)c(Cn3nc[nH]c3=O)sc2n(CCC(F)(F)F)c1=O", "Label value": "LOW"}
{"Structure as smiles": "Cc1cc(-c2c(-c3cccc(C#N)c3)nn3ccc(NCCN4CCOCC4)nc23)cc(Cl)n1", "Label value": "MID"}
{"Structure as smiles": "N#Cc1c(-c2ccco2)nn2ccc(N)nc12", "Label value": "HIGH"}
{"Structure as smiles": "Cc1cc(-c2c(-c3cccc(C#N)c3)nn3ccc(N(C)C)nc23)cc(Cl)n1", "Label value": "MID"}
{"Structure as smiles": "Nc1nc(-c2ccco2)ncc1C(=O)NCc1ncccn1", "Label value": "HIGH"}
{"Structure as smiles": "Cc1cc(-c2c(-c3cccc(C#N)c3)nn3ccc(C(=O)N[C@H]4CNC[C@H]4O)nc23)cc(Cl)n1", "Label value": "LOW"}
{"Structure as smiles": "Cc1cc(-c2c(-c3cccc(C#N)c3)nn3ccc(NC[C@H](C)O)nc23)cc(Cl)n1", "Label value": "LOW"}
{"Structure as smiles": "Nc1nc(-c2ccco2)ncc1C(=O)NCc1cccc(Cl)c1", "Label value": "HIGH"}
{"Structure as smiles": "Cc1cc(-c2c(-c3cccc(C#N)c3)nn3ccc(N[C@@H]4COC[C@@H]4O)nc23)cc(Cl)n1", "Label value": "LOW"}
{"Structure as smiles": "CCn1nccc1-c1c(-c2cccc(C#N)c2)nn2ccc(N3CCS(=N)(=O)CC3)nc12", "Label value": "HIGH"}

input: Classify this compound: Cc1cc(-c2c(-c3cccc(C#N)c3)nn3ccc(N[C@H]4C[C@H](O)C4)nc23)cc(Cl)n1
output: MID

input: Which category does the recorded Ki put Cc1cccnc1CNC(=O)c1c(N)nc(-c2ccco2)nc1OCC(C)(C)C in?
output: HIGH

input: Quick check: band for Cc1cc(-c2c(-c3cccc(C#N)c3)nn3ccc(N)nc23)cc(N)n1
output: MID

input: Category lookup for the compound Cc1cc(-c2c(-c3cccc(C#N)c3)nn3ccc(N/C(N)=N\C#N)nc23)cc(Cl)n1
output: MID

input: Sort CCn1ccnc1CNC(=O)c1cnc(-c2cccc(F)c2)nc1N into one of the categories.
output: HIGH

input: Each compound maps to one class by Ki. Which class for Cc1cc(-c2c(-c3cccc(C#N)c3)nn3ccc(NC[C@@H](C)O)nc23)cc(Cl)n1 ?
output: LOW
